The following compounds are shown together with reported logD at 0.5 h values.
assay: 1-octanol/phosphate buffer distribution coefficient, log D of the compound at pH 7.4 measured after 30 mins by HPLC-LC/MS based shake flask method; type: physicochemical
Lab note: jot down the number only; don't add units.

The examples below pair each entry with its known result.
>>> value("COc1cc(Oc2cc(C)c3nc(COc4cccc(C(=O)O)c4)n(C)c3c2)ccn1")
1.7
>>> value("COc1ccc(Oc2ccc3nc(COc4cccc(C(=O)O)c4)n(C)c3c2)c(C)n1")
1.7
>>> value("Cc1cc(Oc2ccc3nc(COc4cccc(C(=O)O)c4)n(C)c3c2)cc(C)n1")
1

Continue with the next compound.
Request: Look up logD at 0.5 h for this compound: CCOc1cc(Oc2ccc3nc(COc4cccc(C(=O)O)c4)n(C)c3c2)ccn1
Result: 1.8
